# measurement description: yeast display, Sf9 membrane polyspecificity reagent, FACS + sequencing; frameworks hold sequencing errors
parameter measured: polyreactivity (PSR sort gate)

INSERT INTO assay_data (chain, reported_result) VALUES
  ('QVQLVESGGGLLQAGGSLSLSSAASGITCDLYDMGWYRQAPGKERELVAAITDAHSTYYADSVKGRFTNSRDYAKNTVYLQMNSLKPEDTAVYYCAADWYLYLDDKYDYWGQGTQVTVSS', 'low polyreactivity'),
  ('QVQLVESGGGLVQAGGSLRLSCAASGITIKRYAMVWYSQAHGKEREFVATISQSGTSTYYADSVKGRFTISRDNAKNTVYLQMNSLKPEDTAVYYCAADYIGYWYGYYSWGQGTKVTVSS', 'low polyreactivity'),
  ('QVQHVESGGGLVQAGGSLRLSCAASGFIFRRYPLGWYRQAPGKERELVASISSGGNTDYADSVKGRFTISRDNAKNTVYLQMKSLNPEDTAVYYCNARVRWYPGYDYWGQGTQVTVSS', 'high polyreactivity'),
  ('QVQLVESGGGLVQAGGSLRLSCAASGFIFSNAMGWYRQAPGKERELVAAISRSGGSTYYADSVKGRFTISRDNAKNTVYLQMNSLKPEDTAVYYCGARSYPRSPVRYDYWGQGTQVTVSS', 'high polyreactivity'),
  ('QVQLVESGGGLVQAGGSLRLSCAASGLIFRYNAMGWYRQAPGKERELVASITSDGSTNYADSVKGRFTISRDNAKNTVYLQMNSLKPEDTAVYYCAADGYTYCYYQLIPDYDYWGQGTQVTVSS', 'low polyreactivity');
